# Tested on: Staphylococcus aureus
# PROTOCOL DESCRIPTION: Antibacterial activity against methicillin-resistant Staphylococcus aureus by broth liquid microdilution method
# Assay type: functional
MEASURE: log10(MIC) (log10 of the value in µg/mL)

COMPOUND: CC(=O)NC[C@H]1CN(c2ccc(-c3ccc(CNCc4cnn[nH]4)cc3)c(F)c2)C(=O)O1
EXPERIMENTAL SYSTEM: Staphylococcus aureus
MEASURE: log10(MIC)
RESULT VALUE: -0.30

COMPOUND: CC(=O)NC[C@H]1CN(c2ccc(-c3ccc(/C=C4\SC(=S)N(C(C)C(=O)O)C4=O)cc3)c(F)c2)C(=O)O1 (stereo partly drawn)
EXPERIMENTAL SYSTEM: Staphylococcus aureus
MEASURE: log10(MIC)
RESULT VALUE: 0.00

COMPOUND: CC(=O)NC[C@H]1CN(c2ccc(-c3ccc(/C=C4\SC(=S)N(C(C(=O)O)c5ccccc5)C4=O)cc3)c(F)c2)C(=O)O1 (stereo partly drawn)
EXPERIMENTAL SYSTEM: Staphylococcus aureus
MEASURE: log10(MIC)
RESULT VALUE: 0.00

COMPOUND: CCN1C(=O)/C(=C/c2ccc(-c3ccc(N4C[C@H](CNC(C)=O)OC4=O)cc3F)cc2)SC1=S
EXPERIMENTAL SYSTEM: Staphylococcus aureus
MEASURE: log10(MIC)
RESULT VALUE: -0.60

COMPOUND: CC(=O)NC[C@H]1CN(c2ccc(-c3ccc(/C=C4\SC(=S)N(CCCN5CCCCC5)C4=O)cc3)c(F)c2)C(=O)O1
EXPERIMENTAL SYSTEM: Staphylococcus aureus
MEASURE: log10(MIC)
RESULT VALUE: 0.00

COMPOUND: CC(=O)NC[C@H]1CN(c2ccc(-c3ccc(/C=C4\SC(=S)N(CC(=O)O)C4=O)cc3)c(F)c2)C(=O)O1
EXPERIMENTAL SYSTEM: Staphylococcus aureus
MEASURE: log10(MIC)
RESULT VALUE: 0.00

COMPOUND: CC(=O)NC[C@H]1CN(c2ccc(-c3ccc(/C=C4\SC(=S)N(C)C4=O)cc3)c(F)c2)C(=O)O1
EXPERIMENTAL SYSTEM: Staphylococcus aureus
MEASURE: log10(MIC)
RESULT VALUE: -0.60

COMPOUND: CC(=O)NC[C@H]1CN(c2ccc(-c3ccc(/C=C4\NC(=S)N(CCCN5CCOCC5)C4=O)cc3)c(F)c2)C(=O)O1
EXPERIMENTAL SYSTEM: Staphylococcus aureus
MEASURE: log10(MIC)
RESULT VALUE: 0.30

COMPOUND: CCOC(=O)CN1C(=O)/C(=C/c2ccc(-c3ccc(N4C[C@H](CNC(C)=O)OC4=O)cc3F)cc2)NC1=S
EXPERIMENTAL SYSTEM: Staphylococcus aureus
MEASURE: log10(MIC)
RESULT VALUE: 0.00

COMPOUND: CC(=O)NC[C@H]1CN(c2ccc(-c3ccc(/C=C4\SC(=S)NC4=O)cc3)c(F)c2)C(=O)O1
EXPERIMENTAL SYSTEM: Staphylococcus aureus
MEASURE: log10(MIC)
RESULT VALUE: -0.90

COMPOUND: CC(=O)NC[C@H]1CN(c2ccc(-c3ccc(/C=C4\NC(=S)NC4=O)cc3)c(F)c2)C(=O)O1
EXPERIMENTAL SYSTEM: Staphylococcus aureus
MEASURE: log10(MIC)
RESULT VALUE: -0.90

COMPOUND: CCCN1C(=O)/C(=C/c2ccc(-c3ccc(N4C[C@H](CNC(C)=O)OC4=O)cc3F)cc2)NC1=S
EXPERIMENTAL SYSTEM: Staphylococcus aureus
MEASURE: log10(MIC)
RESULT VALUE: 0.30

COMPOUND: CCN(CC)CCCN1C(=O)/C(=C/c2ccc(-c3ccc(N4C[C@H](CNC(C)=O)OC4=O)cc3F)cc2)NC1=S
EXPERIMENTAL SYSTEM: Staphylococcus aureus
MEASURE: log10(MIC)
RESULT VALUE: -0.90

Cited source: ChEMBL document CHEMBL4371065
